src = paper PMC9814232

# test system: UniProtKB P21802
# Sequence (P21802 453-770): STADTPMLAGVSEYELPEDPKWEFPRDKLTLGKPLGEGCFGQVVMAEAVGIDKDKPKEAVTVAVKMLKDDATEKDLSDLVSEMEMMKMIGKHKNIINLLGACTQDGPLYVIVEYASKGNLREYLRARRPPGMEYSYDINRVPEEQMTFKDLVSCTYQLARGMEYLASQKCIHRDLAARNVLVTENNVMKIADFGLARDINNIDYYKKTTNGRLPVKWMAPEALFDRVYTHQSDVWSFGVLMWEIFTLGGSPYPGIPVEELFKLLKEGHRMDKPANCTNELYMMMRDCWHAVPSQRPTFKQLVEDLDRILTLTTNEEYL
property name: IC50 (nM)
Please respond with the number in nM and leave the unit unwritten.

Enter IC50 (test system UniProtKB P21802) for "C=CC(=O)Nc1ccc(CN2C(=O)N(c3cc(OC)cc(OC)c3)Cc3cnc(Nc4ccc(N5CCN(C)CC5)cc4)nc32)cc1"
2.9
